Value source: ChEMBL document CHEMBL3244150

- Test system: Salmonella paratyphi
- test_method_notes: Antibacterial activity against Salmonella paratyphi ATCC 12176 after overnight incubation by twofold agar dilution method
- Format: functional, Salmonella enterica subsp. enterica serovar Paratyphi A
- experimental_context: Salmonella enterica
Define the label as 1 when MIC is strictly less than 0.8 µg/mL and as 0 in all remaining cases.

compound | assigned_label
CC(=O)OCC1=C(C(=O)[O-])N2C(=O)[C@@H](NC(=O)CS(=O)(=O)CC(F)(F)F)[C@H]2SC1.[Na+] | 0
CC(=O)OCC1=C(C(=O)[O-])N2C(=O)[C@@H](NC(=O)CSCC#N)[C@H]2SC1.[Na+] | 0
CC(=O)OCC1=C(C(=O)O)N2C(=O)[C@@H](NC(=O)Cc3cccs3)[C@H]2SC1 | 0
CC(=O)OCC1=C(C(=O)[O-])N2C(=O)[C@@H](NC(=O)CSCC(F)(F)F)[C@H]2SC1.[Na+] | 0
Cn1nnnc1SCC1=C(C(=O)O)N2C(=O)[C@@H](NC(=O)CSC(F)(F)F)[C@H]2SC1 | 1
CC(=O)OCC1=C(C(=O)[O-])N2C(=O)[C@@H](NC(=O)C[S+]([O-])CC#N)[C@H]2SC1.[Na+] (stereo partly drawn) | 0
